What TGI was measured for each of the following?
# System: MDA-MB-468 breast
# protocol-description: NCI tumour cell line growth inhibition, 48 h

| compound | TGI |
| --- | --- |
| COCCOC(C)C(/C=N/NC(N)=S)=N/NC(N)=S (stereo not drawn) | > 100 µM |
| COc1cc2cc(C(=O)O)[nH]c2cc1OCc1ccccc1 | > 100 µM |

Please find the next compound below.
I'm curious: which TGI was measured for CCOC(=O)c1c(C)c2c(n1C)CSc1cc(S(=O)(=O)c3ccccc3)c(=O)[nH]c1-2 tested on MDA-MB-468 breast?
> 100 µM
